FYI, the data here is from paper PMC8533965.

System Tested: zebrafish Vasa, full length (amino acids 1–715), fused to the Venus N-terminal half (zfVasa-VN) (zebrafish)
Assay Protocol: split reporter (BiFC, NanoBiT); BiFC with split Venus in living zebrafish embryos: Buc constructs with VC and zfVasa constructs with VN at their C-termini, mRNAs (200 ng/μL) co-injected at the one-cell stage, fluorescence imaged at 3 hpf by confocal microscopy; read-out percent of fluorescent embryos, three independent …
Result Type: percent of fluorescent embryos (BiFC) (%)

Take a look at these entries with their results.
SVLSPSIDELSSRDEMFSTDVED (domain or fragment) [Buc amino acids 372–394 (highly conserved sequence, Buc-VBM) fused to the Venus C-terminal half] : 66
Buc-CTD (amino acids 363–639) fused to the Venus C-terminal half (domain or fragment) YPQVTQERQSVLSPSIDELSSRDEMFSTDVEDLEVVPGHVYVGGGRLAEASDMPVRSRKELPSVDKTCSVCQKTCACCGSTLQDEVGMCKMAEHSHPERDEMSDQDCDYDLEAEVRSNCESPRVSKRKCCSRHALPSCGHHCAKHRHRKLLCEGQESCDLREQARVHPKGECCEEYGALAKADKRIQKGALCRPCIEQQWREGVVSDQENWASCGAKPRSWRQVTGPQDQGRTPLRRSTCKSIHQQRPRSEYNDYDETEFTYCQRGRGSMKKRGSRY : 77

P. YPQVTQERQSVLSPSILELSSRDEMFSTDVEDLEVVPG (domain or fragment) [Buc-VBM (amino acids 363–400) D379L fused to the Venus C-terminal half]
Q. YPQVTQERQSVLSPSIDELSSRDEMFSTDVEDLEVVPG (domain or fragment) [Buc amino acids 363–400 fused to the Venus C-terminal half]
query: Please state the entry with greater percent of fluorescent embryos (BiFC) among P and Q . Could you answer with the label of the item you picked?
result: Q
(Q: 72%, P: 38%)
